The values you see were collected from BigSolDB 2.1.

- Assay Context: in acetonitrile, 298.15 K
Reported Metric: solubility (mole fraction)
Form rule: numeric answer, no unit written next to it.

Data request, read-out solubility (mole fraction), for `CCCSc1nc(N[C@@H]2C[C@H]2c2ccc(F)c(F)c2)c2nnn([C@@H]3C[C@H](OCCO)[C@@H](O)[C@H]3O)c2n1`
0.0026

====

- Assay Context: in acetonitrile, 273.15 K
Reported Metric: solubility (mole fraction)
Form rule: numeric answer, no unit written next to it.

Data request, read-out solubility (mole fraction), for `CCCSc1nc(N[C@@H]2C[C@H]2c2ccc(F)c(F)c2)c2nnn([C@@H]3C[C@H](OCCO)[C@@H](O)[C@H]3O)c2n1`
0.000876

====

- Assay Context: in isopropanol, 273.15 K
Reported Metric: solubility (mole fraction)
Form rule: numeric answer, no unit written next to it.

Data request, read-out solubility (mole fraction), for `CCCSc1nc(N[C@@H]2C[C@H]2c2ccc(F)c(F)c2)c2nnn([C@@H]3C[C@H](OCCO)[C@@H](O)[C@H]3O)c2n1`
0.00251

====

- Assay Context: in methanol, 273.15 K
Reported Metric: solubility (mole fraction)
Form rule: numeric answer, no unit written next to it.

Data request, read-out solubility (mole fraction), for `CCCSc1nc(N[C@@H]2C[C@H]2c2ccc(F)c(F)c2)c2nnn([C@@H]3C[C@H](OCCO)[C@@H](O)[C@H]3O)c2n1`
0.00494

====

- Assay Context: in n-propanol, 313.15 K
Reported Metric: solubility (mole fraction)
Form rule: numeric answer, no unit written next to it.

Data request, read-out solubility (mole fraction), for `CCCSc1nc(N[C@@H]2C[C@H]2c2ccc(F)c(F)c2)c2nnn([C@@H]3C[C@H](OCCO)[C@@H](O)[C@H]3O)c2n1`
0.00872

====

- Assay Context: in ethanol, 303.15 K
Reported Metric: solubility (mole fraction)

Data request, read-out solubility (mole fraction), for `CCCSc1nc(N[C@@H]2C[C@H]2c2ccc(F)c(F)c2)c2nnn([C@@H]3C[C@H](OCCO)[C@@H](O)[C@H]3O)c2n1`
0.0105

====

- Assay Context: in cyclohexanone, 308.15 K
Reported Metric: solubility (mole fraction)
Form rule: numeric answer, no unit written next to it.

Data request, read-out solubility (mole fraction), for `CCCSc1nc(N[C@@H]2C[C@H]2c2ccc(F)c(F)c2)c2nnn([C@@H]3C[C@H](OCCO)[C@@H](O)[C@H]3O)c2n1`
0.0744

====

- Assay Context: in acetonitrile, 278.15 K
Reported Metric: solubility (mole fraction)
Form rule: numeric answer, no unit written next to it.

Data request, read-out solubility (mole fraction), for `CCCSc1nc(N[C@@H]2C[C@H]2c2ccc(F)c(F)c2)c2nnn([C@@H]3C[C@H](OCCO)[C@@H](O)[C@H]3O)c2n1`
0.00115

====

- Assay Context: in isopropanol, 283.15 K
Reported Metric: solubility (mole fraction)
Form rule: numeric answer, no unit written next to it.

Data request, read-out solubility (mole fraction), for `CCCSc1nc(N[C@@H]2C[C@H]2c2ccc(F)c(F)c2)c2nnn([C@@H]3C[C@H](OCCO)[C@@H](O)[C@H]3O)c2n1`
0.00325

====

- Assay Context: in toluene, 303.15 K
Reported Metric: solubility (mole fraction)
Form rule: numeric answer, no unit written next to it.

Data request, read-out solubility (mole fraction), for `CCCSc1nc(N[C@@H]2C[C@H]2c2ccc(F)c(F)c2)c2nnn([C@@H]3C[C@H](OCCO)[C@@H](O)[C@H]3O)c2n1`
0.00013
